tested on: MS2 coat protein; assay: apparent KD of MS2 coat protein; designed switch direction (-1 OFF switch, 1 ON switch): -1; higher = weaker reporter binding; settings: input ligand: none
Quick reference for apparent KD of MS2 coat protein among some sequences
Just the number please, in nM, no unit attached.

Reference set (3 entries):
• UGCUGACAAGGAUAUACAUGAGGAUCACCCAUGUUGGUUCAGCGACGAUAGUCGCAAUGUAGAAGGUGUCAGCA [E3/9-C1] (Eterna round: R97, puzzle: Exclusion 3) = 236
• CUUCUGUCAGGAUAUGCGAAUCACCGCUGGGUCAGCGGCGAGCAGAAGGGACAUGAGGAUCACCCAUGUAAAAU [Quriveer] (Eterna round: R97, puzzle: Exclusion 4) = 51.3
• GGUGUUGAAGGAUAUACAUGAGGAUCACCCAUGUACCGCUCGGACAAGAUAUCAUUCAGUAGAAGGUCGGACCG [Eternabot (L2) Solution 11] (Eterna round: R97, puzzle: Exclusion 3) = 150

# get_value(readout='apparent KD of MS2 coat protein', item= GGUACUCAAAGAGUACCAAUACGAACAUGAGGAUCACCCAUGUAGGAUAUGCUACUCAAAGAGUAGCAGAAGGACAUGUGCCUU [Far Half Aptamer v5] (Eterna round: R96, puzzle: Exclusion NG 3) ) 29.5

# get_value(readout='apparent KD of MS2 coat protein', item= CCCUCACAUGAGGAUCACCCAUGUCAGGAUAUCUCAGUGCGUCCACACGGACACAUCAAGAGAAGGGACAAAAC [Maceedesbi] (Eterna round: R97, puzzle: Exclusion 1) ) 18.6

# get_value(readout='apparent KD of MS2 coat protein', item= UGCUACAUGAGGAUCACCCAUGUAAUGUGGGAUUCGUUAGGACAGGAUAUGAUUGUAUUGUUUUUUCAGAAGGGUCAUUACUUU [JR_ExcNG3_Sub011] (Eterna round: R96, puzzle: Exclusion NG 3) ) 52.9

# get_value(readout='apparent KD of MS2 coat protein', item= ACAUUGCGAGGAUAUACAUGAGGAUCACCCAUGUGGUAGUGGAUACGGUAGGGCUAGUGUAGAAGGUGUUAUGA [EX3 #15] (Eterna round: R97, puzzle: Exclusion 3) ) 132

# get_value(readout='apparent KD of MS2 coat protein', item= CUUCGGCGAGGAUAUUACGAGAACGACAUGAGGAUCACCCAUGUGAUCGAGGUUGCCUCGUAAGAAGGCGCAUAUA [Reederedle] (Eterna round: R97, puzzle: Exclusion 5) ) 244

# get_value(readout='apparent KD of MS2 coat protein', item= UUAGUGUUAGGAUAUAAUCAUAUAAGCUGUAAGGUGUAUGAUUAGAAGGGACAUGAGGAUCACCCAUGUCGUGA [Eternabot (L1) Solution 94] (Eterna round: R97, puzzle: Exclusion 4) ) 20.1

# get_value(readout='apparent KD of MS2 coat protein', item= CUGAGUAGUCAGGAUAUGCUGUACAAAAGUACAGCAGAAGGGAUUACAUGAGGAUCACCCAUGUGUACUUCAUG [)mei Ex6 B20] (Eterna round: R97, puzzle: Exclusion 6) ) 184

###

Quick reference for apparent KD of MS2 coat protein among some sequences
test system: MS2 coat protein; assay: apparent KD of MS2 coat protein; higher = weaker reporter binding; conditions: Eterna round: R107; input ligand: tryptophan 2.4 mM
Just the number please, in µM, no unit attached.

Reference set (6 entries):
• CCCUGGGUGGGAAGGAGCGCAUAGUGAACAUGAGGAUCACCCAUGUGCAGACGUGAGUCAUUGCAGGUAGGUCGCCCACCCAGGG [SS-ArgB22] = 0.0209
• ACAUGAGGAUCACCCAUGUACAUGAGGGAAGGAGCGGUACAUGAGCCAGGUAGGUCGCCCAUGAGCAUCAGCCAUGUACAUCAGC [vv,mmullin] = 0.0757
• AAACAUUGCUGCGAUACCAGACAUGAGGAUCACCCAUGUACCAAGGUAAGAAAAUAACAUGUCCCUUGGCAGCGCAGCAAUGAAA [MAT - Exclusion Theophlline B - Mod of Eli - D2] = 0.0158
• UGGGUCGGAUGAGGAAAUUGUCCGACGUAUCGAGGACCGGUACGGCCGCCACUCGGUUGUACAUGAGGAUCACCCAUGUCAGGGU [#1 Same State - Tryptophan A Attempt #15 (HarryS)] = 0.128
• CCAUGCGUAGGAAGGAGCGCAUACUUCACAUGAGGAUCACCCAUGUCGAGACGUGAGUCAGUGCAGGUAGGUCGCCUACGCAUGG [Same State - Arginine B (Freestyle 27)] = 0.0194
• AGUCUUGUAGGAAGGAGCGCAUACUUCACAUGAGGAUCACCCAUGUCAAGACGUGAGUCAGUGCAGGUAGGUCGCCUAACUAAGA [Same State - Arginine B (Freestyle 14)] = 0.018

# get_value(readout='apparent KD of MS2 coat protein', item= AUAUCAUAGAGUGAUACCAGACUACAUGAGGAUCACCCAUGUGACAUUUAAAUAUCAUUUGUCCCUUGGCAGCACAUUAAGUACA [JR_Nu_ExcTheophyB_Sub020] ) 0.0616

# get_value(readout='apparent KD of MS2 coat protein', item= GGGUAAGAUCCGGAUACCAGCGAACAUGAGGAUCACCCAUGUGAAAUAAGAUAGAAUAAACGCCCUUGGCAGCCGAAAUAGAGUU [Same State Theophylline B GF 3] ) 0.0889

# get_value(readout='apparent KD of MS2 coat protein', item= AUAACAUGAGGAUCACCCAUGUAAGCAGAUACCAGCUAGGAAACUAGCCCUUGGCAGCUGCAAGGUGAUCCUGCUGCCAAGGUAU [(M1)-(M2)-(T1)-(T2)-(M)'-(T)'_Design7] ) 0.209

# get_value(readout='apparent KD of MS2 coat protein', item= GGACCAUGGAGCGAUACCAGCUUGAGUGUACUGGCCAGGUACAUGAGGAUCACCCAUGUAAGCCCUUGGCAGCGCUCCAUGGUCC [#1 Exclusion - Theophylline B Attempt #25 (HarryS)] ) 0.0123

# get_value(readout='apparent KD of MS2 coat protein', item= AUACGUAACAGAAGGAGCGCACCGACAUGAGGAUCACCCAUGUGGGAUGGGACUCUUUUGGUGCAGGUAGGUCGCUGUCACGCAU [Beatattian] ) 0.0403

###

tested on: K4 kissing-loop RNA reporter; assay: apparent KD of K4 kissing-loop reporter; higher = weaker reporter binding; conditions: Eterna round: R107; input ligand: none;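 also: bound reporter read as fluorescence of individual clusters on recovered sequencing chips by microscopy, with normalized cluster intensities fitted with a binding model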
value kind: apparent KD of K4 kissing-loop reporter (nM)
Just the number please, in nM, no unit attached.

Reference set (5 entries):
- AACAAGGGAUGUCAGUGAUGUUGUACGUCGCGAGGACCGGUACGGCCGCCACUCGUAAUACACAGAUGAGGGUUCUUUCUCUGAU [theeternabot_sameState_KL_Trp_A_49]: 268
- UUGGCUGGACGGGAUACCAGCCAAAUCGUGUGCUUGGGAUGUCUAAGAGCCAGUGAUGUUGGCCCUUGGCAGCCCUCCCAGCUUG [Inontixe]: 97.1
- AAAAUAAAAGCAGUCAUCGGAGUGAUGUUCCGAGGACCGGUACGGCCGCCACUCGACCAGACAAAGUCUGGAUGGCGAGACUGCA [#SwitchBubble 18 #K4Early]: 102
- AAAACUAUCAGAAGGAGCGUGGAAUAUUCAUCUGUAUCUAAUACGAGUGAUGUUCGUAAUUCACAGGUAGGUCGCUGAUCAAUAA [whbob_Ex_Arginine_B_2th155]: 241
- AGAGUUAUGCGAGGAUAUGCAGUUAGUACUCAAAGAGUACUAACGCAGAGUGAUGUUCUGUGAAAUGCAGAAGGUGCAUAACUCA [Omei KL FMN B SS B v5]: 330

# get_value(readout='apparent KD of K4 kissing-loop reporter', item= AAUAACUUGCAGUGAUGUUGCAAGAAAUCUCAGGAUAUCAGGAAACUGAGAAGGGAGUAUCCUGAGUAAACAUCACAUCUUAGGA [KL-SSFMN-A8] ) 399

###

tested on: MS2 coat protein; assay: apparent KD of MS2 coat protein; higher = weaker reporter binding; settings: Eterna round: R107; input ligand: arginine 13.2 mM
Please enter 1 where apparent KD of MS2 coat protein is greater than or equal to 40 nM, and -1 where it is lower.

Examples with answers:
- CGAGCUGACGGAAGGAGCGAAGCCUACUCGGUGUUCCCACAUGAGGAUCACCCAUGUGGGCUUCAGGUAGGUCGCCGAACAGUCG [Vecequlala]: -1
- UUAUGCAGGUCGGCCGCCACUACACACAUGAGGAUCACCCAUGUAGUUACUGGGUGAAGUGGCAGUAGGACCGGGACCUGCACAU [Brourdmod13]: 1
- GUCGGUACGUCGGCAAAGCCGAUGUGCCAGCGAGGACCGGUACGGCCGCCACUCGUACAUGAGGAUCACCCAUGUCCGGUCCGAC [Omei Trp SS A C v4]: 1
- CACGAAAGAUCGGCCGCCACUAAUCGAUGUGUUCUUUCACAUGAGGAUCACCCAUGUUCUUGCGUUAGGACCGGGAUUGAGCGUG [#01 Exclusion Tryptophan B]: -1
- CAAUGCGGUUAGGAUACCAGCGACACACACUUCUCACAACACAUGAGGAUCACCCAUGUCCGCCCUUGGCAGCCUUGACUAAGGU [theeternabot_exclusion_MS2_Theo_B_39]: -1

Quick check: does UGUAUGUGAUCUGAUACCAGCUAAUAAGCUUGAGGAUCACCCAAGUGGAGCGGAAACGCAGGCCCUUGGCAGCAGAUCGCAUACU [Denovo 9 #StaticStem #AlternativeMS2] have apparent KD of MS2 coat protein greater than or equal to 40 nM? 1
